Kindly supply the reported Ratio of PDL1:CD28 values for the records listed here.
# target: T1, human PD-L1 (huPD-L1), full-length, stably expressed on CHO cells (human, UniProt Q9NZQ7 19-290)
# T1 construct: whole, on cells
# T1 sequence (Q9NZQ7 19-290): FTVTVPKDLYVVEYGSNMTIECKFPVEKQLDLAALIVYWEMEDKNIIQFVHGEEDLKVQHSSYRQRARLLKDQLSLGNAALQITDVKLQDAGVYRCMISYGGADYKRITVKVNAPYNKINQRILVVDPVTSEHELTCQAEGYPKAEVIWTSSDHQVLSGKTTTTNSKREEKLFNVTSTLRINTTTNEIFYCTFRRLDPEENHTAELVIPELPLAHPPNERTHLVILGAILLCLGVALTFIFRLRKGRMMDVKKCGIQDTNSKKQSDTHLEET
# measurementDescription: flow cytometry; MFI on PD-L1 CHO cells over MFI on Jurkat cells (CD28)
Number only, in ratio; omit the unit.

**Query** Let me know recorded Ratio of PDL1:CD28 for variant CD80 IgV-Fc E35D/M47L/V68M/E95V/L97Q (Fc fusion, not shown: small tags and cut ends; a dimerising Fc or GST) VIHVTKEVKEVATLSCGHNVSVEELAQTRIYWQKDKKMVLTMMSGDLNIWPEYKNRTIFDITNNLSIMILALRPSDEGTYECVVLKYEKDAFKRVHQAEVTLSVKAD , thanks.
**Result** 1300

**Query** Consider the binder variant CD80 IgV-Fc Q33R/E35D/M38I/M47L/V68M (Fc fusion, not shown: small tags and cut ends; a dimerising Fc or GST) VIHVTKEVKEVATLSCGHNVSVEELAQTRIYWRKDKKIVLTMMSGDLNIWPEYKNRTIFDITNNLSIMILALRPSDEGTYECVVLKYEKDAFKREHLAEVTLSVKAD . State its measured Ratio of PDL1:CD28.
**Result** 1110

**Query** Annotate the binder variant CD80 IgV-Fc H18Y/V22D/E35D/M47V/N48K/V68M (Fc fusion, not shown: small tags and cut ends; a dimerising Fc or GST) VIHVTKEVKEVATLSCGYNVSDEELAQTRIYWQKDKKMVLTMMSGDVKIWPEYKNRTIFDITNNLSIMILALRPSDEGTYECVVLKYEKDAFKREHLAEVTLSVKAD with its measured Ratio of PDL1:CD28.
**Result** 50.1

**Query** Please give measured Ratio of PDL1:CD28 of the following entry: variant CD80 IgV-Fc E35D/M47V/N48K/V68M/A71G/L85M (Fc fusion, not shown: small tags and cut ends; a dimerising Fc or GST) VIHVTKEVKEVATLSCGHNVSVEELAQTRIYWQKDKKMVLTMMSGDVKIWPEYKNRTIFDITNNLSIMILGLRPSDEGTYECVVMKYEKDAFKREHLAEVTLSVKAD
**Result** 75.4

**Query** Specify reported Ratio of PDL1:CD28 for the binder shown: variant CD80 IgV-Fc E35D/M47L/Y53F/V68M/A71G/K93R/E95V (Fc fusion, not shown: small tags and cut ends; a dimerising Fc or GST) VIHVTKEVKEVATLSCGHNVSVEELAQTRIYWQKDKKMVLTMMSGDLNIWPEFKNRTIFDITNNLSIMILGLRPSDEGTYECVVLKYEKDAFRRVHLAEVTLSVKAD
**Result** 65.3

**Query** Supply recorded Ratio of PDL1:CD28 for variant CD80 IgV-Fc E35D/T41S/D46E/M47I/V68M/K93R/E95V (Fc fusion, not shown: small tags and cut ends; a dimerising Fc or GST) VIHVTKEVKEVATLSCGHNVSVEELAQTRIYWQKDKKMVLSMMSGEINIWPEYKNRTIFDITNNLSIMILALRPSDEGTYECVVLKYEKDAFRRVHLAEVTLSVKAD here.
**Result** 31.1

**Query** Answer with reported Ratio of PDL1:CD28 of variant CD80 IgV-Fc H18Y/E35D/M38I/M47L/V68M/L85M (Fc fusion, not shown: small tags and cut ends; a dimerising Fc or GST) VIHVTKEVKEVATLSCGYNVSVEELAQTRIYWQKDKKIVLTMMSGDLNIWPEYKNRTIFDITNNLSIMILALRPSDEGTYECVVMKYEKDAFKREHLAEVTLSVKAD
**Result** 215

**Query** Using known records, supply Ratio of PDL1:CD28 for variant CD80 IgV-Fc Q27L/Q33L/E35D/T41S/M47V/N48K/V68M/L85M (Fc fusion, not shown: small tags and cut ends; a dimerising Fc or GST) VIHVTKEVKEVATLSCGHNVSVEELALTRIYWLKDKKMVLSMMSGDVKIWPEYKNRTIFDITNNLSIMILALRPSDEGTYECVVMKYEKDAFKREHLAEVTLSVKAD
**Result** 1130

**Query** Respond only with Ratio of PDL1:CD28 recorded for variant CD80 IgV-Fc H18Y/E35D/V68M/T79M/L85M (Fc fusion, not shown: small tags and cut ends; a dimerising Fc or GST) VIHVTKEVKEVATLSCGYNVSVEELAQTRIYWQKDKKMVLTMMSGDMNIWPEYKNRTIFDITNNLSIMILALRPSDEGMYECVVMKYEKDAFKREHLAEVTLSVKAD
**Result** 14.3
